Parameter fold repression: see the listing below.
# Target Under Test: T1, ECF22_4450
# T1 chain: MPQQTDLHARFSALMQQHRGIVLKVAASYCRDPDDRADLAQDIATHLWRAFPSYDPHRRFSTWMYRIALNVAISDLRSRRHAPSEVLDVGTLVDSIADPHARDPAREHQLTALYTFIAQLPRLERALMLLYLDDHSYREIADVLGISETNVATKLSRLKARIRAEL
When you answer, write just the number.

Completed entries (count: 2):
AS20_992 (protein) MTPERFVHLADAYGADLQRWPSAERAAAQALLDCGDAQAVAALRQAHWLDSQLDRYQVPAPSPALAQRIIAAAQQPGAPFWSRYAGWLASLGWVGVGLTGVAAGMLAVALSLPLSTSAEALPSVFDQSDAEFVLSINAEEAEQ: 2.29
AS30_35 (protein) MDKRLQQLREEYKNVQIPKELDIIVEKALQQEPKKKRIVMWPTSAAIAAAILFTALVNINPDAAQAMSKIPVIGKIVKAITFIEIKEEKDQSSIDVKTPALSGLSNKELENSINEKYLKESQQLYKEFIQSTSKNKKGHLSIYSDYETVTDTPDLLSIRRNIETTQASSYTQSRYITIDKKNDILLTLKSLFKDERYIKVISQNIKEQMKQQMKEDPNKIYWLTDEDAEPFKTILPDQTFYITEDHKLVISFDEYEVAPGYMGVTEFTIPTGVISNLLVGERYIR: 2.21

# evaluate next
**Q:** Identify measured fold repression associated with AS25_1645 (protein) MNESFSQRQTDGDRRRGGDLEMKKNHTSHQHHTDSETPMGHNFEQFQRLSAYFDGEATPAERKEIQHLLDTDPQVKQQYQQLRQLKQALQLLPIPTSISAQYLGQRVLARLRRSQLRTLSLWGSGAIAALFVAGVMGQMPRLNFDRFAKNDPDQQPTAALVETSPQGEEALVVALNRPVLQIPKLATTESP
**A:** 9.86

Source: paper PMC3817407
